test system: SH-SY5Y; assay: Neuroprotective activity against oxygen-glucose deprivation-induced toxicity in human SH-SY5Y cells assessed as cell viability at 1 uM preincubated for 2 hrs followed by OGD-challenge and measured after 24 hrs by MTT assay (reference value: 54.92 +/- 2.12%); format: functional; conditions: read-out: Activity
Rule: viability at 1 µM below 60% gives satisfied, anything at or above gives not satisfied.

molecule-smiles	tested-system	cat
Cc1cc(C2CCCCC2)n(O)c(=O)c1C=O	SH-SY5Y	satisfied
CCc1cc(C2CCCCC2)n(O)c(=O)c1	SH-SY5Y	not satisfied
Cc1cc(CC(C)C)n(O)c(=O)c1	SH-SY5Y	satisfied
Cc1cc(C2CCCC2)n(O)c(=O)c1	SH-SY5Y	satisfied
Cc1cc(C)n(O)c(=O)c1	SH-SY5Y	satisfied
Cc1cc(C2CCCCC2)n(O)c(=O)c1Br	SH-SY5Y	not satisfied
CCCCCc1cc(C)cc(=O)n1O	SH-SY5Y	not satisfied
Cc1cc(C2CCCCC2)n(O)c(=O)c1	SH-SY5Y	not satisfied
Cc1cc(C2CCCCC2)n(O)c(=O)c1Cl	SH-SY5Y	not satisfied
Cc1cc(C2CCCCC2)n(O)c(=O)c1CNc1ccccc1	SH-SY5Y	satisfied
